# Tested on: P. falciparum 3D7 growth, pLDH absorbance
# measurement_notes: blood-stage malaria parasite growth potency – strain 3D7, dose response (AID 2305)
Criterion: IC50 strictly less than 0.8 µM. Met: Fulfilled. Not met: Not fulfilled.

{"compound": "COc1cc(NC(=O)N2CCOC(CCN3CCC4(CCc5ccccc54)CC3)(c3ccc(Cl)c(Cl)c3)C2)cc(OC)c1OC (stereo unspecified)", "label_class": "Fulfilled"}
{"compound": "Cc1cccc2[nH]c(-c3ccc(-c4ccc(CNCc5ccc(S(C)(=O)=O)cc5)cc4)cc3)nc12", "label_class": "Fulfilled"}
{"compound": "N#Cc1cccc(-c2cccc(C(=O)NC3CCC(CCN4CCc5ccc(C#N)cc5CC4)CC3)c2)c1 (stereo unspecified)", "label_class": "Fulfilled"}

Does "CCc1cc([C@H]2O[C@@H](n3cnc4c(NCC(c5ccccc5)c5ccccc5)nc(NCCNc5ccccn5)nc43)[C@H](O)[C@@H]2O)on1" have IC50 strictly under 0.8 µM?
Not fulfilled

Record "C#CCN(Cc1cc2c(=O)[nH]c(N)nc2cc1C)c1ccc(C(=O)N[C@@H](CCC(=O)O)C(=O)O)cc1" : is its IC50 strictly below 0.8 µM?
Fulfilled

Consider "CS(=O)(=O)CCNCc1cccc(-c2ccc3c(Nc4cc(O)c(Cl)cc4F)ccnc3c2)c1" . Does its IC50 lie strictly below 0.8 µM?
Fulfilled

Find out if reported IC50 for "Cc1c(Cl)cccc1S(=O)(=O)Nc1ccc(CCN2CCC(N)CC2)cc1" is less than 0.8 µM
Not fulfilled

Decide: IC50 of "CCCN1CCN(CCNC(=O)c2cccc(Nc3nccc(Nc4ccc(Oc5ccccc5)cc4)n3)c2)CC1" strictly below 0.8 µM?
Fulfilled
